Biological target: D(4) dopamine receptor (Homo sapiens)
Sequence (P21917 whole entry): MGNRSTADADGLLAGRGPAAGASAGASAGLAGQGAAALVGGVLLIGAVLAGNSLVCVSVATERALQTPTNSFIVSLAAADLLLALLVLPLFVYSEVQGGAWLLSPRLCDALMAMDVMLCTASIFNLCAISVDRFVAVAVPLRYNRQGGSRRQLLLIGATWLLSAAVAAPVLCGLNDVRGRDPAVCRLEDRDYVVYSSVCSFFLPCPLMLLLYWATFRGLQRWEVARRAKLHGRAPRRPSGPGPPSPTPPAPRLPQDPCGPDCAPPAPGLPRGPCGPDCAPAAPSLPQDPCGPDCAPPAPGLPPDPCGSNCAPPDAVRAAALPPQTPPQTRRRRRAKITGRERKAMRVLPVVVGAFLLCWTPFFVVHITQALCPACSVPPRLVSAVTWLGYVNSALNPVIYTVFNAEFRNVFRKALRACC
Assay: Displacement of [3H]spiperone from human dopamine D4 receptor transfected in HEK293 cells after 2 hrs by scintillation counting analysis
Format: cell-based
Conditions: read-out: Ki
Quick reference for pKi among some molecules
In textbook form, pKi equals minus log to base ten of the concentration in mol/L.

Oc1ccc2c(c1)O[C@@H](CN1CCN(c3ccc(OCCF)cc3)CC1)CC2	6.88
Oc1ccc2c(c1)O[C@@H](CNCc1ccc(I)cc1)CC2	8.80
Oc1ccc2c(c1)O[C@@H](CNCc1cccc(I)c1)CC2	9.01

Now consider the entry below.
Task item: Answer with the recorded pKi of Oc1ccc2c(c1)O[C@@H](CNCCN1CCN(c3ccc(I)cc3)CC1)CC2 only.
Reply: 8.01

* * *

# key: entry, value: Ki
Target: D(1B) dopamine receptor (Homo sapiens)
Sequence (P21918 whole entry): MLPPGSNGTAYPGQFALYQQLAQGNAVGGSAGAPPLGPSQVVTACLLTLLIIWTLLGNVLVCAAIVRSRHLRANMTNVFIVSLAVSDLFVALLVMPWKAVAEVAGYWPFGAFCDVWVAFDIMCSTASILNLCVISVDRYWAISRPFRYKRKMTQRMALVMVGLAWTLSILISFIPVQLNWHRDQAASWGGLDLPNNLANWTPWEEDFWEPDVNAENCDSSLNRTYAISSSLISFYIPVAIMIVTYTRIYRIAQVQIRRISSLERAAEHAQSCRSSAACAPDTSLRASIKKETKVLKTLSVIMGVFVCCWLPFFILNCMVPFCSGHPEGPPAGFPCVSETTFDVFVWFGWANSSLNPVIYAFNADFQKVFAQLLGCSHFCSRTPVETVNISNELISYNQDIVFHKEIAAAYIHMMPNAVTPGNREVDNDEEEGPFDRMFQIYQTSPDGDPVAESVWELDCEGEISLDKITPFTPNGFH
Assay: Displacement of [3H]SCH23390 from human dopamine D5 receptor transfected in HEK293 cells after 2 hrs by scintillation counting analysis
Format: cell-based
Conditions: read-out: Ki
Supply the numeric figure in µM, leaving out any unit text.

The cases that follow already have their Ki on record.
Oc1ccc2c(c1)O[C@@H](CNCc1cccc(I)c1)CC2	4.64
Oc1ccc2c(c1)O[C@@H](CNCCN1CCN(c3ccc(I)cc3)CC1)CC2	3.48
Oc1ccc2c(c1)O[C@@H](CNCc1ccc(OCCCCF)cc1)CC2	2.89
Oc1ccc2c(c1)O[C@@H](CNCCN1CCN(c3ccc(OCCF)cc3)CC1)CC2	9.7
Oc1ccc2c(c1)O[C@@H](CN1CCN(c3ccc(I)cc3)CC1)CC2	17.8

Task item: For the compound CCCCCCNC[C@H]1CCc2ccc(O)cc2O1 , give its reported Ki.
Reply: 27.7

Task item: Return reported Ki. Input compound: Oc1ccc2c(c1)O[C@@H](CNCc1ccccc1)CC2
Reply: 3.83

Task item: Please give measured Ki of the following entry: Oc1ccc2c(c1)O[C@@H](CN1CCN(c3ccc(OCCF)cc3)CC1)CC2
Reply: 19.7

* * *

Target: D(2) dopamine receptor (Homo sapiens)
Sequence (P14416 whole entry): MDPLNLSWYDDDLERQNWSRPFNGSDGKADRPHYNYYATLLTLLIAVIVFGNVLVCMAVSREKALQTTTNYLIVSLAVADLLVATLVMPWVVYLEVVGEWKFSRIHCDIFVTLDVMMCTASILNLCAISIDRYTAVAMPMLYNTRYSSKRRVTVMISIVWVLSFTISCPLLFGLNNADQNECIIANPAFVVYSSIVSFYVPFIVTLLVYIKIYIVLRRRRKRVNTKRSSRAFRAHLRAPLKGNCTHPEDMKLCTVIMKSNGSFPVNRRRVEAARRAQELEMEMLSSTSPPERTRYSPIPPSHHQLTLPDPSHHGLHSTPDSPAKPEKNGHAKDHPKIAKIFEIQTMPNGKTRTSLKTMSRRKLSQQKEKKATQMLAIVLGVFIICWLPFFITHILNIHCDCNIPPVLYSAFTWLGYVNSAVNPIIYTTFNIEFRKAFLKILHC
Assay: Displacement of [3H]spiperone from low-affinity state of human dopamine D2S receptor transfected in HEK293 cells after 2 hrs by scintillation counting analysis
Type: cell-based
Details: read-out: Ki
Reported Ki values are given for each entry in this list.
Numeric answer only, unit nM assumed.

Task item: Report Ki, nothing else, for this molecule: Oc1ccc2c(c1)O[C@@H](CNCc1ccccc1OCCCCF)CC2
Reply: 452

* * *

Biological target: D(2) dopamine receptor (Homo sapiens)
Assay: Displacement of [3H]spiperone from low-affinity state of human dopamine D2L receptor transfected in HEK293 cells after 2 hrs by scintillation counting analysis
Type: cell-based
Details: read-out: pKi (converted)
Entries and their Ki values follow.

Previously resolved entries follow.
Oc1ccc2c(c1)O[C@@H](CNCCN1CCN(c3ccc(I)cc3)CC1)CC2	66.1 nM
Oc1ccc2c(c1)O[C@@H](CNCc1ccc(OCCCCF)cc1)CC2	61.7 nM
Oc1ccc2c(c1)O[C@@H](CNCc1cccc(I)c1)CC2	33.9 nM
Oc1ccc2c(c1)O[C@@H](CNCc1ccccc1I)CC2	29.5 nM
Oc1ccc2c(c1)O[C@@H](CNCc1ccccc1OCCCCF)CC2	145 nM

Task item: Quote Ki reported for Oc1ccc2c(c1)O[C@@H](CNCCN1CCN(c3ccc(OCCF)cc3)CC1)CC2 please.
Reply: 219 nM

The measurements presented in this section are drawn from ChEMBL document CHEMBL3112461.
